# Tested on: Mycobacterium tuberculosis
# method description: Antimycobacterial activity against patient-derived multidrug-resistant Mycobacterium tuberculosis 2712 measured after 7 days by resazurin dye-based assay
# Format: functional
# measurement context: Mycobacterium tuberculosis, 2712, 168 h
value type: MIC (µg/mL)
Report the figure in µg/mL without appending any unit label.

Answered examples (5):
> print(dat)
                                   compound  unit.abbreviation  test.value
1  O=C(c1ccc([N+](=O)[O-])o1)N1CCC2(CC1)CC(Cc1nc(-c3cccnc3)no1)CCO2 (configuration not stated)              µg/mL         1.6
2  O=C(c1ccc([N+](=O)[O-])o1)N1CCC2(CC1)CC(Cc1nc(C3CC3)no1)CCO2 (configuration not stated)              µg/mL         3.1
3  COCCc1noc(CC2CCOC3(CCN(C(=O)c4ccc([N+](=O)[O-])o4)CC3)C2)n1 (configuration not stated)              µg/mL        12.5
4  COc1ccc(CC2CCOC3(CCN(C(=O)c4ccc([N+](=O)[O-])o4)CC3)C2)cc1 (configuration not stated)              µg/mL         6.2
5  O=C(c1ccc([N+](=O)[O-])o1)N1CCC2(CCCCO2)CC1              µg/mL         6.2

Query :: Retrieve MIC measured for Cc1ccc(CC2CCOC3(CCN(C(=O)c4ccc([N+](=O)[O-])o4)CC3)C2)cc1 (configuration not stated) and print it.
Result :: 100

Query :: Report measured MIC; entry is O=C(c1ccc([N+](=O)[O-])o1)N1CCC2(CC1)CC(OCc1ccc(F)cc1)CCO2 (configuration not stated)
Result :: 25
